Ref: the supplement of paper PMC12764529

Assay: folding stability dG unfold from trypsin proteolysis; higher = more stable
Consider the following sequences and their measured folding stability dG unfold readings.
property.name: folding stability dG unfold

>>> reading("SGSMTLVSESTVPEKGTTLLTLKFPNGAPATVTLNPDGSSTTTFPATGLPFTVTVGSGTLTVTTPAALALSA [r9_233_JUSTAS]")
"1.01 kcal/mol"
>>> reading("SAGGSAGGSAGGKWRPITFPFPDGWYLQIYMNPDGDVKAEIYNPDGKPVEKTFPPGEPIFSAGGSAGGSAGG [r7_215_TrROS]")
"1.25 kcal/mol"
>>> reading("SAGKIKIEVVKREDGYVVVKIRFEDTGEELVITVPKEDEEKVKELAEELAEKLKEEGIEVEVEVRELPPSAG [r5_815_TrROS_Hall]")
"2.53 kcal/mol"
>>> reading("SAGGSAKVTIDTDNGIIKIEVGGKLIAEIEIPPGFPGGIYLEYEPNPPTLKFYIYTKNGPVYINDISAGGSA [r2_399_TrMRF]")
"3.5 kcal/mol"
